biological target: HRgpA-6H (Porphyromonas gingivalis) (UniProt P28784); experiment: ELISA on coated HRgpA-6H
OD450nm by entry:

| binder | OD450nm |
| --- | --- |
| KB001 mouse Fab FASEBA VH S28Y (Fab, V domains shown) VH: EVQLKQSGPGLVAPSQSLSITCTVSGFYLSIYSVHWVRQPPGKGLEWLGMIWGGGSSDYNSALKSRLSISKDNSKSQVFLKMNSLQTDDTAMYYCARNGNFYAMDYWGQGTSVTVSS VL: QIVLTQSPAIMSASLGERVTMTCTASSSVSSSFLHWYQQKPGSSPQLWIYSTSNLASGVPARFSGSGSGTSYSLTISSMEAEDAATYYCHQYHHSPYIYTFGGGTKLEIK | 0.437 |
| KB001 mouse Fab FASEBA VH K64R (Fab, V domains shown) VH: EVQLKQSGPGLVAPSQSLSITCTVSGFSLSIYSVHWVRQPPGKGLEWLGMIWGGGSSDYNSALRSRLSISKDNSKSQVFLKMNSLQTDDTAMYYCARNGNFYAMDYWGQGTSVTVSS VL: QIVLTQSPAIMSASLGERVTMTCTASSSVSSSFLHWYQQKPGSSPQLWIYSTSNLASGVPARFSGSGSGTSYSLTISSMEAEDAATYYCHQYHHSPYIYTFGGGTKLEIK | 0.87 |
| KB001 mouse Fab FASEBA VH I31N (Fab, V domains shown) VH: EVQLKQSGPGLVAPSQSLSITCTVSGFSLSNYSVHWVRQPPGKGLEWLGMIWGGGSSDYNSALKSRLSISKDNSKSQVFLKMNSLQTDDTAMYYCARNGNFYAMDYWGQGTSVTVSS VL: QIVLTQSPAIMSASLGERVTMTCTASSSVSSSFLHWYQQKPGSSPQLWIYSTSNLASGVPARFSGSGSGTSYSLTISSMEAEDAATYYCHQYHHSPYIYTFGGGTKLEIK | 0.429 |
